Molecular target: trypsin
Assay: monoclonal phage ELISA on trypsin
propertyLabel: ELISA signal

Could you share which ELISA signal value was measured for E09 (EET 5-3 KnotBody) (scFv, V domains shown) VH: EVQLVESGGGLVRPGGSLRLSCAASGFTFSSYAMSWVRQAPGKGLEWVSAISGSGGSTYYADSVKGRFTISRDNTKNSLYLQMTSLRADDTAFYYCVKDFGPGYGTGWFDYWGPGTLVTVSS VL: AVNWYQQLPGKAPKLLIYAAGGCGPNGFCGSGSDGGVCPRILMRCKQDSDCLAGCGTQSGIPERFSGSKSGTSASLAISGLRSEDEADYYCAAWDDSLRAYVFGTGTQLTVLG ? 70300

Could you share which ELISA signal value was measured for E05 (EET 5-3 KnotBody) (scFv, V domains shown) VH: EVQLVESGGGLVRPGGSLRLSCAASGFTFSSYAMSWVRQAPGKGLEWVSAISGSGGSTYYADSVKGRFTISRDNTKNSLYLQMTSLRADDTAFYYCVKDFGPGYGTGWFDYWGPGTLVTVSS VL: AVNWYQQLPGKAPKLLIYAAGGCGPNGFCGSGSDGGVCPRILMRCKQDSDCLAGCGAQSGIPERFSGSKSGTSASLAISGLQSEDEAHYYCAAWDDSLNGYVFGTGTKVTVLG ? 119000

Could you share which ELISA signal value was measured for E03 (EET 5-3 KnotBody) (scFv, V domains shown) VH: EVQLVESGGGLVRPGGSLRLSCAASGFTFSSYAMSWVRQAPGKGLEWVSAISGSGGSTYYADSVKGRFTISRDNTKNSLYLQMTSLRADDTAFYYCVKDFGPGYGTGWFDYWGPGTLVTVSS VL: AVNWYQQLPGKAPKLLIYAAGGCGPNGFCGSGSDGGVCPRILMRCKQDSDCLAGCGRNSGIPERFSGSKSGHTATLTISRVEAGDEADYYCQVWDSSSDHVLFGGGTKLTVLG ? 82500

Could you share which ELISA signal value was measured for E08 (EET 5-3 KnotBody) (scFv, V domains shown) VH: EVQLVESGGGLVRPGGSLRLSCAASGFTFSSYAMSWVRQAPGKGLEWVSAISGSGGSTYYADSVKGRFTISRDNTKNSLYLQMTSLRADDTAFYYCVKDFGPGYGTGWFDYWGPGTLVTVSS VL: AVNWYQQLPGKAPKLLIYAAGGCGPNGFCGSGSDGGVCPRILMRCKQDSDCLAGCGIQSGIPERFSGSKSGTSASLAISGLRSEDEADYYCAAWDDNLSGYVFGTGTKLTVLG ? 121000

Could you share which ELISA signal value was measured for F03 (EET 5-3 KnotBody) (scFv, V domains shown) VH: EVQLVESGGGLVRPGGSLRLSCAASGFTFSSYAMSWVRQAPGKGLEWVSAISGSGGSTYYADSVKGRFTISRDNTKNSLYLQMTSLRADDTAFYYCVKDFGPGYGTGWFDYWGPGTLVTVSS VL: AVNWYQQLPGRAPKLLIYAAGGCGPNGFCGSGGDGGVCPRILMRCKQDSDCLAGCGAHSGIPERFSGSKSGTSASLAISGLRSEDEADYYCAAWDDSLNGWVFGGGTKVTVLG ? 68000
